Assay: BET inhibitor-based combinations targeting novel dependencies in MECOM-rearranged (r) AML: OCI-AML3 cell line (AID 2202232); also: nearly all actives have a fitted effect of over 35% in size; also: potency is read from the fitted curve at half-maximal effect
Details: CellTiter-Glo luminescence, 48 h; OCI-AML3 viability; series mostly up to 46 µM
Results filed as inconclusive are left out. Active and inactive are the calls of the source. Calls follow the shape of the dose curve; as a rule, active = well fitted inhibition curve with a large enough effect; inconclusive = small, poorly fitted or top-dose-only effect; inactive = no such curve, though single readings can be large or run the other way.
measured-metric: Potency

Cc1sc2c(c1C)C(c1ccc(Cl)cc1)=N[C@@H](CC(N)=O)c1nnc(C)n1-2 : 105 nM (active)
C[C@]12CC[C@H]3[C@@H](CCC4=CC(=O)CC[C@@]43C)[C@H]1CC[C@H]2OC(=O)CCC1CCCC1 : inactive
CN(C)[C@@H]1C(=O)C(C(N)=O)=C(O)[C@@]2(O)C(=O)C3=C(O)c4c(O)cccc4[C@@](C)(O)[C@H]3[C@H](O)[C@@H]12 : inactive
CC(C)(O)/C=C\C(=O)[C@](C)(O)[C@H]1[C@H](O)C[C@]2(C)[C@@H]3CC=C4[C@@H](C=C(O)C(=O)C4(C)C)[C@]3(C)C(=O)C[C@@]12C : 417 nM (active)

Record summary for C=C(C)[C@H]1Cc2c(ccc3c2O[C@@H]2COc4cc(OC)c(OC)cc4[C@@H]2C3=O)O1 : reported Potency = 332 nM (active)

Kindly note the recorded Potency for O=S(=O)(F)Cc1ccccc1 , which is inactive

According to the records, this compound COC(=O)[C@@]12OC[C@]34[C@H]([C@@H](O)[C@@H]1O)[C@@]1(C)CC(=O)C(O)=C(C)[C@@H]1C[C@H]3OC(=O)[C@H](OC(=O)/C=C(\C)C(C)C)[C@@H]24 displays Potency of 7.4 nM (active)

Lab book: Potency of CN(C)NC(=O)CCC(=O)O noted as inactive

// sample O=C(N[C@@H](COc1ccc2[nH]c(=O)[nH]c2c1)c1ccccc1)c1cccn(Cc2ccc(F)c(F)c2)c1=O , its Potency was 10500 nM (active)

----------
Target: Cellular tumor antigen p53 (Homo sapiens) (UniProt P04637)
Sequence (P04637 whole entry, looked up): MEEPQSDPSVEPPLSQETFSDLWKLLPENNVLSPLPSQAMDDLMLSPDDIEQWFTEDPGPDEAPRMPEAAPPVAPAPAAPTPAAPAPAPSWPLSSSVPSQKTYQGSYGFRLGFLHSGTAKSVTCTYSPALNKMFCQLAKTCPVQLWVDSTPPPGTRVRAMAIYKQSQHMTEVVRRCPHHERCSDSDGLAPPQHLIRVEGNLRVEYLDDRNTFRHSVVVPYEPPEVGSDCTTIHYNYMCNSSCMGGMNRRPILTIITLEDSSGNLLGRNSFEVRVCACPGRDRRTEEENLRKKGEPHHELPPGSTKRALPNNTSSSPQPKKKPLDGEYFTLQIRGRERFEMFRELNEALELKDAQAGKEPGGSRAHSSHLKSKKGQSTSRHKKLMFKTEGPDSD
Test: Primary qHTS for small molecule compounds that upregulate eGFP-tagged delta133p53alpha (in N-terminal) cells. (AID 2060322);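 also: cells pre-induced with doxycycline then dosed without doxycycline; 0% = DMSO vehicle and 100% = reference activator; nearly all actives have a fitted effect of over 75% in size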
Details: NCI-H358 eGFP-delta133p53alpha fluorescence, 24 h; hits give high values
Records with an inconclusive call do not appear.
Each item that follows carries a reported activation.
Write the answer as a number in %, unit excluded.

COC1=CC(=O)O[C@@H](CCc2ccccc2)C1 : -13.4

Simply: C[C@]12COC(=O)C[C@@H]1CC[C@@H]1[C@H]2CC[C@@]2(C)[C@H]1CC[C@]2(C)O , Cellular tumor antigen p53 (Homo sapiens) (UniProt P04637), activation = -15.3

The observed activation for OC1(c2ccc(Cl)cc2)c2ccccc2C2=NCCN21 (configuration not stated) when tested with Cellular tumor antigen p53 (Homo sapiens) (UniProt P04637) stands at 6.21

activation value, target or system Cellular tumor antigen p53 (Homo sapiens) (UniProt P04637), for C[C@]12CC[C@H]3[C@@H](CCC4=CC(=O)CC[C@@H]43)[C@@H]1CC[C@@H]2OC(=O)CCc1ccccc1 : 2.51

Value sought: activation, system Cellular tumor antigen p53 (Homo sapiens) (UniProt P04637), item C[C@@H]1O[C@H](C[N+](C)(C)C)C[C@H]1O . Result: -7.38

Measured activation for this entry C[N+]1(CCF)[C@@H]2CC[C@H]1CC(OC(=O)C(O)(c1ccccc1)c1ccccc1)C2 (some centres not stated) on Cellular tumor antigen p53 (Homo sapiens) (UniProt P04637): 5.08

Observed activation on Cellular tumor antigen p53 (Homo sapiens) (UniProt P04637), entry C1=C2CCCN[C@H]2[C@@H]2C[C@H]1[C@H]1CCCCN1C2 , equals -9.55

----------
Molecular target: Cellular tumor antigen p53 (Homo sapiens)
Assay: Primary qHTS for small molecule compounds that upregulate eGFP-tagged delta133p53alpha (in N-terminal) cells. (AID 2060322);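 also: cells pre-induced with doxycycline then dosed without doxycycline; 0% = DMSO vehicle and 100% = reference activator; nearly all actives have a fitted effect of over 75% in size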
Details: NCI-H358 eGFP-delta133p53alpha fluorescence, 24 h; hits give high values
Records with an inconclusive call do not appear. The source made the active and inactive calls. Calls come from the whole dose curve; as a rule, active = well fitted activation curve with a large enough effect; inconclusive = small, poorly fitted or top-dose-only effect; inactive = no such curve, though single readings can be large or run the other way.
measured-metric: activation

Example entries begin here.
Cc1c(C(=O)c2cccc3ccccc23)c2cccc3c2n1[C@H](CN1CCOCC1)CO3 : 12.1% (inactive)
C=C[C@@H]1CN2CCC1C[C@@H]2[C@@H](O)c1ccnc2ccccc12 (stereo partly specified) : -22.8% (inactive)

// recorded activation for CN(Cc1cccc(-c2ccncc2)c1)C(=O)Oc1ccc(-c2ccc(C(N)=O)cc2)cc1 : -8.11% (inactive)

Reported activation of COC1CC(OC2CCC3(C)C(=CCC4C3CCC3(C)C(C(C)OC5OC(COC6OC(CO)C(O)C(O)C6O)C(O)C(O)C5O)CCC43O)C2)OC(C)C1OC1OC(C)C(O)C(OC)C1O (stereo unspecified) : 5.34% (inactive)

Consider COC(C)(C)CCCC(C)C/C=C/C(C)=C/C(=O)OC(C)C (stereo unspecified) . Its measured activation is -11.9% (inactive)

Recorded result, CO[C@H]1CC=C2CCN3CCC4=C(CC(=O)OC4)[C@]23C1 , activation: -25.9% (inactive)

The measured activation associated with CC(O)=C(C#N)C(=O)Nc1cc(Br)ccc1Br reads 1.6% (inactive)

----------
Assay: BET inhibitor-based combinations targeting novel dependencies in MECOM-rearranged (r) AML: MV-4-11 cell line (AID 2202233); also: nearly all actives have a fitted effect of over 45% in size
Details: MV-4-11 AML viability, CellTiter-Glo luminescence, 48 h; series mostly up to 46 µM
Records with an inconclusive call do not appear. Activity calls are given as the source filed them. The call rests on the fitted dose curve; in most records, active means well fitted inhibition curve with a large enough effect; inconclusive means small, poorly fitted or top-dose-only effect; inactive means no such curve, though single readings can be large or run the other way.
Assign a class; possible classes are yes (active), no (inactive)

O=C(O)CNC(=O)C1C(=O)N(C2CCCCC2)C(=O)N(C2CCCCC2)C1=O : no
C[C@@H]1O[C@@H](O[C@H]2C[C@@H](O)[C@]3(CO)[C@H]4[C@H](O)C[C@]5(C)[C@@H](C6=CC(=O)OC6)CC[C@]5(O)[C@@H]4CC[C@]3(O)C2)[C@H](O)[C@H](O)[C@H]1O : yes
Cc1cc(SCc2sc(-c3ccc(C(F)(F)F)c(F)c3)nc2C)ccc1OCC(=O)O : yes
COc1cc(C)[nH]c(=O)c1CNC(=O)c1c(C)n([C@H](C)C2CCN(CC(F)(F)F)CC2)c2ccccc12 : no
O=C(O)c1nn(Cc2ccc(Cl)cc2Cl)c2ccccc12 : no

Enquiry: Answer briefly: the call reported for NN=C(N)N in this assay.
Return: no

Enquiry: Assay result, entry C=C[C@H]1CN2CCC1C[C@@H]2[C@@H](O)c1ccnc2ccccc12 (some centres undefined) — outcome?
Return: yes

Enquiry: Answer briefly: the call reported for O=C(NCC1CCOCC1)c1cnc(Nc2ccc(Cl)cc2Cl)nc1C(F)(F)F in this assay.
Return: yes

Enquiry: Which result was noted for this compound in the test: CCCCCC[C@H]1C(=O)O[C@H](C)[C@H](NC(=O)c2cccc(NC=O)c2O)C(=O)O[C@@H](C)[C@@H]1OC(=O)CC(C)C
Return: yes

----------
Test: qHTS for Inhibitors of the Aldehyde Dehydrogenase Family (ALDH1A2, ALDH1A3, ALDH2, ALDH3A1) (AID 2061307); also: test system not described further here; potency is read from the fitted curve at half-maximal effect; nearly all actives have a fitted effect of over 50% in size
Conditions: ALDH inhibition qHTS; series mostly up to 50.3 µM
Records with an inconclusive call do not appear. The source made the active and inactive calls. The call rests on the fitted dose curve; in most records, active means well fitted inhibition curve with a large enough effect; inconclusive means small, poorly fitted or top-dose-only effect; inactive means no such curve, though single readings can be large or run the other way.
A collection of compounds and their measured Potency

NNC(=O)c1ccc(O)cc1 : 8.96 µM (active)

# evaluate next
Input CN(N=O)c1cc(O)ccc1O . Output Potency: 2.25 µM (active)

----------
Test: BET inhibitor-based combinations targeting novel dependencies in MECOM-rearranged (r) AML: OCI-AML3 cell line (AID 2202232); also: nearly all actives have a fitted effect of over 35% in size; also: potency is read from the fitted curve at half-maximal effect
Settings: CellTiter-Glo luminescence, 48 h; OCI-AML3 viability; series mostly up to 46 µM
Results filed as inconclusive are left out. Active and inactive are the calls of the source. Calls come from the whole dose curve; as a rule, active = well fitted inhibition curve with a large enough effect; inconclusive = small, poorly fitted or top-dose-only effect; inactive = no such curve, though single readings can be large or run the other way.
measured-metric: Potency

Example entries begin here.
C[C@@]12OC(=O)[C@]1([C@@H](O)[C@@H]1C=CCCC1)NC(=O)[C@@H]2CCCl : 20.9 nM (active)
C/C=C(/C)C(=O)O[C@H]1C(C)=C2[C@H]([C@@H]1OC(=O)CCCCCCC)[C@@](C)(OC(C)=O)C[C@H](OC(=O)CCC)[C@@]1(O)[C@H]2OC(=O)[C@@]1(C)O : 662 nM (active)
Clc1ccccc1C(c1ccccc1)(c1ccccc1)n1cccn1 : inactive
CC[C@@H](C(N)=O)N1CCCC1=O : inactive
CSCC[C@@H](NC(=O)[C@@H](Cc1ccccc1)NC(=O)CNC(=O)CNC(=O)[C@@H](N)Cc1ccc(O)cc1)C(=O)O : inactive
CC(N[C@H]1C[C@@H]1c1ccccc1)c1ccc2c(c1)OCCO2 (stereo partly specified) : inactive
O=C(O)c1nn(Cc2ccc(Cl)cc2Cl)c2ccccc12 : inactive
CN(C)[C@@H]1C(=O)C(C(N)=O)=C(O)[C@@]2(O)C(=O)C3=C(O)c4c(O)cccc4[C@@](C)(O)[C@H]3C[C@@H]12 : inactive
CN1C(=O)CCS(=O)(=O)C1c1ccc(Cl)cc1 (stereo unspecified) : inactive
COc1cccc2c1C(=O)c1c(O)c3c(c(O)c1C2=O)C[C@@](O)(C(=O)CO)CC3OC1CC(N2CCOC(OC)C2)C(O)C(C)O1 (stereo partly specified) : 4.7 nM (active)

CN(C)c1cc2c(cc1Sc1nc3c(N)nccc3n1CCNCC(C)(C)C)OCO2 has a reported Potency of 1180 nM (active)

# Potency of CC(=O)c1c(O)c(C)c(O)c(Cc2c(O)c3c(c(C(=O)/C=C/c4ccccc4)c2O)OC(C)(C)C=C3)c1O = inactive

// CC(C)[C@]12O[C@H]1[C@@H]1O[C@]13[C@]1(O[C@H]1C[C@H]1C4=C(CC[C@@]13C)C(=O)OC4)[C@@H]2O : Potency value = 29.5 nM (active)

Value of measured Potency for the entry CC(=O)N1N=C(c2ccc(N)cc2)c2cc3c(cc2C[C@H]1C)OCO3 : inactive

The reported Potency of the compound CC(NC(C)(C)C)C(=O)c1cccc(Cl)c1 (stereo unspecified) was inactive

Item: O=C(N[C@H]1CN2CCC1CC2)c1ccc(Cl)cc1 | Potency: inactive
